Tested on: NCI/ADR-RES ovarian
MEASUREMENT PROTOCOL: NCI-60 one-dose screen, 48 h (100 = growth as untreated, 0 = no growth, -100 = all killed)
MEASUREMENT SETUP: 10 µM unless noted
Procedure: Growth inhibition of the NCI/ADR-RES human […] tumor cell line is measured as a screen for anti-cancer activity. Cells are grown in 96 well plates and exposed to the test compound for 48 hours. Compounds are tested at a single concentration, which is 10^-5 M for most compounds. The reported endpoint is percent growth (GI% or GIPRCNT), where numbers from 0 - 100% represent growth inhibition, and numbers from -100% - 0 represent cell death. For example, a value of 40 represents 60% growth inhibition. […]
This is part of a sample that, as a whole, favours compounds with a hit. Of some 83,000 tested, about 20% had one in any assay. Calls of active or inactive are those of the source. The calls were made as follows: active = growth percent below 10; inactive = the rest.
MEASURE: growth

COc1cccc(-c2nn(-c3ccccc3)cc2-c2ccnc(NCCNS(=O)(=O)c3ccc(Cl)cc3)c2)c1 | 27.9% (inactive)
COc1cc2c(cc1-c1c(C)noc1C)ncc1nc(C3CCC(F)(F)CC3)n([C@@H](C)COC(F)F)c12 | 40.8% (inactive)
CC(C)C[C@@H](NC(=O)[C@@H](Cc1ccccc1)NC(=O)c1cnccn1)B1O[C@H]2[C@H](O)[C@@H](C(=O)NCCCC[C@@H]3NC(=O)[C@@H](Cc4ccccc4)NC(=O)[C@H](CC(=O)O)NC(=O)CNC(=O)[C@H](CCCN=C(N)N)NC3=O)O[C@@H](CN)[C@H]2O1 | 7.01% (active)

If you can, please state the reported growth value of COc1cccc(-c2nn(-c3ccccc3)cc2-c2ccnc(NCCCNS(=O)(=O)c3ccccc3)c2)c1 .
21.1% (inactive)

What value of growth has been reported for the following compound? C=C(C)[C@@H]1CC[C@]2(c3nnc(-c4ccncc4)o3)CC[C@]3(C)[C@H](CC[C@@H]4[C@@]5(C)CCC(=O)NC(C)(C)[C@@H]5CC[C@]43C)[C@@H]12
97.5% (inactive)

// growth lookup, key: Cn1cc(-c2nc(-c3cn(C)c4ncccc34)cs2)c2cc(F)ccc21
10.8% (inactive)

Source: PubChem BioAssay (NCI)
